# Target Under Test: BRM (Homo sapiens, UniProt P51531)
# Construct: made in house; host or cells: High Five insect cells
# Sequence (P51531 whole entry): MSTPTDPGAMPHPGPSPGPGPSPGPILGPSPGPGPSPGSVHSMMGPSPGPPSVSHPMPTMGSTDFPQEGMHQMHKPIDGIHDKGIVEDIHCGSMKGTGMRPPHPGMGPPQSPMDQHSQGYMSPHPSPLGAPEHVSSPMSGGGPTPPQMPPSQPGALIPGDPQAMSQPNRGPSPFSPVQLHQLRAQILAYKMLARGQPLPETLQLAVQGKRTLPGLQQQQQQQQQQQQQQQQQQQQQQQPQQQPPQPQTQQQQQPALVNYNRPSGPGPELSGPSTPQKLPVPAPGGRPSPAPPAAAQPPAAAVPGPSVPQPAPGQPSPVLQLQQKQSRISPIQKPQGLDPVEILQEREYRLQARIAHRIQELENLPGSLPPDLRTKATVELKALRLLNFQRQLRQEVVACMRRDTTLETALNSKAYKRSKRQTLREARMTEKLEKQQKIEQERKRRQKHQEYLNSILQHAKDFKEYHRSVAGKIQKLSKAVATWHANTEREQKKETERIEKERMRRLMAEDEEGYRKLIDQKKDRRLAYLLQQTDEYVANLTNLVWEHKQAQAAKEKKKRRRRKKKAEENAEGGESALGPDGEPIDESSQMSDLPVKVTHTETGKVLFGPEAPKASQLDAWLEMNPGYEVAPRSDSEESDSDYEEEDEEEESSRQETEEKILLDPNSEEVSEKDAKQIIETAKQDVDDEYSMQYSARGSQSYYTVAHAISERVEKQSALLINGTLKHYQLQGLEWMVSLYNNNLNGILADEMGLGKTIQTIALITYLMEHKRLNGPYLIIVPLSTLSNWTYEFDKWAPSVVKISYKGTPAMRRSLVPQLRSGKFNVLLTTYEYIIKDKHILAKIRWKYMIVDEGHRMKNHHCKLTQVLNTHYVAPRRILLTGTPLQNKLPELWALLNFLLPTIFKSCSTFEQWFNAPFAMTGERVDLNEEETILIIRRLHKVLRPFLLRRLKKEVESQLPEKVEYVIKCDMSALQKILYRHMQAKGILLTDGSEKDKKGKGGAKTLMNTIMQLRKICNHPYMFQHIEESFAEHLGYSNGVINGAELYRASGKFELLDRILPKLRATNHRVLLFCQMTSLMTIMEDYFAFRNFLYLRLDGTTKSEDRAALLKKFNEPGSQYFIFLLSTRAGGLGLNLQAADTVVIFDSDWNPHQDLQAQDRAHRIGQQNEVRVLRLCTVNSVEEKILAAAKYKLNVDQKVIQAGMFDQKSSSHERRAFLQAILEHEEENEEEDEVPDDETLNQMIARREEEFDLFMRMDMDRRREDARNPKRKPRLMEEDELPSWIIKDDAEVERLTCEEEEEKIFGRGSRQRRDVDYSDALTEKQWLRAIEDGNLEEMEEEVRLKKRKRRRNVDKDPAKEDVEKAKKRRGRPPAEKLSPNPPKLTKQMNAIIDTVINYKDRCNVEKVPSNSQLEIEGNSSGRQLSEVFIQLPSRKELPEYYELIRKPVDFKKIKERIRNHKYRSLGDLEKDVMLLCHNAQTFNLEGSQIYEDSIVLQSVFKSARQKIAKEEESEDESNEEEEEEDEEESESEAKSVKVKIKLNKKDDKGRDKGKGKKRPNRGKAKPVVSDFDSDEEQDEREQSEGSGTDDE
# Assay Notes: ATPase catalytic activity of BRM, ADP-Glo in vitro biochemical assay
# Conditions: ratio of BRG1 IC50 to BRM IC50
Measurement Label: Ratio*
Would you mind answering with just the numeric figure?

Use these answered entries as a reference point.
INSERT INTO measurements (compound, target_under_test, measurement_label, reported_measurement) VALUES
  ('C[C@@H]1CN(c2cccc(-c3ccc4cnc(CNC(=O)c5ccc6c(c5)S(=O)(=O)CCOCC6)cc4n3)n2)C[C@H](C)O1 [Compound 627]', 'BRM (Homo sapiens, UniProt P51531)', 'Ratio*', 1.28),
  ('CCOc1ccnc2c1CCCN2c1ccc2cnc(CNC(=O)c3ccc4c(c3)S(=O)(=O)CCOC4)cc2n1 [Compound 573]', 'BRM (Homo sapiens, UniProt P51531)', 'Ratio*', 5.56),
  ('O=C(NCc1cc2nc(N3CCCc4ccc(C5CCOC5)nc43)ccc2cn1)c1ccc2c(c1)S(=O)(=O)CCOC2 (stereo not shown) [Compound 630]', 'BRM (Homo sapiens, UniProt P51531)', 'Ratio*', 24.14);

// moving on: another record for Ratio*
Value of Ratio* reported for the compound COc1ccc2c(n1)N(c1ccc3cnc(CNC(=O)c4ccc5c(c4)S(=O)(=O)CCOC5)cc3n1)CCC2 [Compound 568] is 9.95
